The values you see were collected from patent US6881728B1.

# System name: human androgen receptor (Homo sapiens)
# Construct: host or cells: MCF-7 cytosol (endogenous) or CHO cells transfected with hAR
# Sequence (P10275 whole entry): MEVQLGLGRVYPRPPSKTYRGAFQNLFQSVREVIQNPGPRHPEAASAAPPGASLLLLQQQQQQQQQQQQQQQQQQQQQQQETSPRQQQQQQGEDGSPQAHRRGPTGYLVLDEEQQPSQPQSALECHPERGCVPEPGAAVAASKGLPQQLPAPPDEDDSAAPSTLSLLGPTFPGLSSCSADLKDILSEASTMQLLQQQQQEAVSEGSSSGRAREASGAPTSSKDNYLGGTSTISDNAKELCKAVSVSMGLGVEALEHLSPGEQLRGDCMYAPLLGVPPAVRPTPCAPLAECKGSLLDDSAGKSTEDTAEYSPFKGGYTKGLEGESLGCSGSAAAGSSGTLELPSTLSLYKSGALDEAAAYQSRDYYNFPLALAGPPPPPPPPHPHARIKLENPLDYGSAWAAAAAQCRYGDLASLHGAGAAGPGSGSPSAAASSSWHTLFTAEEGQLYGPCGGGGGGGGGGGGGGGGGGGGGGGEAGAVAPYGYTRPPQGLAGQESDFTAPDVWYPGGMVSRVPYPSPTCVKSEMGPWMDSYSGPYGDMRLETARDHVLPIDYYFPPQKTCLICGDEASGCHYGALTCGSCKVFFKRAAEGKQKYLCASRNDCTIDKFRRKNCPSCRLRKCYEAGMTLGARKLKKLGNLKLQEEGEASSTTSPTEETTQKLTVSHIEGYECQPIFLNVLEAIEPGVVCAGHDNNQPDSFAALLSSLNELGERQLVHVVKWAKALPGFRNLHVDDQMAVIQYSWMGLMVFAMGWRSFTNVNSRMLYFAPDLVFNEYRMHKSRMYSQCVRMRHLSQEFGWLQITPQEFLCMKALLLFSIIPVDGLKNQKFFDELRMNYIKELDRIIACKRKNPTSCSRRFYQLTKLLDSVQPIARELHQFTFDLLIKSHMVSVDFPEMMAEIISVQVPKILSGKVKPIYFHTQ
# Experiment description: androgenic activity rating (procedures described above; which one underlies the rating is not stated)
# Parameters: key: +: androgenic activity found; ++: high androgenic activity; +++: excellent androgenic activity
Observed property: Rating (androgenic activity)

Some entries whose results are on file:
1. C[C@@H]1CC2=CC(=O)CC[C@@H]2[C@H]2CC[C@]3(C)[C@H](CO)CC[C@]3(C)[C@@H]21 | ++
2. CCC1CC2(C)C(C(C)O)CCC2C2CCC3=C(CCC(=O)C3)C12 (centres unmarked) [Example 28a] | +
3. CC(O)C1CCC2C3C(C)CC4=CC(=O)CCC4C3CCC12C (centres unmarked) [Example 16a] | ++
4. C=CC1CC2(C)C(C(C)O)CCC2C2CCC3=CC(=O)CCC3=C12 (centres unmarked) | +

Lab note: need Rating (androgenic activity) with human androgen receptor (Homo sapiens) for entry CC(O)C1CCC2C3CCC4=CC(=O)CCC4=C3CCC12C (centres unmarked) [Example 27b] , please look it up.
+

Lab note: need Rating (androgenic activity) with human androgen receptor (Homo sapiens) for entry CC(O)C1C2CC2C2C3C(C)CC4=CC(=O)CCC4C3CCC12C (centres unmarked) [Example 20b] , please look it up.
+

Lab note: need Rating (androgenic activity) with human androgen receptor (Homo sapiens) for entry CCCCCCCCCCC(=O)OC[C@@H]1CC[C@@H]2[C@H]3[C@H](CC[C@]12C)[C@H]1CCC(=O)C=C1C[C@H]3C [Example 33c] , please look it up.
+

Lab note: need Rating (androgenic activity) with human androgen receptor (Homo sapiens) for entry `C[C@]12CCC3=C4CCC(=O)C=C4CC[C@H]3[C@H]1CC[C@H]2CO` , please look it up.
+

* * *

# System name: human androgen receptor (Homo sapiens)
# Construct: host or cells: MCF-7 cytosol (endogenous) or CHO cells transfected with hAR
# Experiment description: androgenic activity rating (procedures described above; which one underlies the rating is not stated)
# Parameters: key: +: androgenic activity found; ++: high androgenic activity; +++: excellent androgenic activity
Observed property: Rating (androgenic activity)

Some entries whose results are on file:
1. C[C@@H]1CC2=CCCC[C@@H]2[C@H]2CC[C@]3(C)[C@H](CO)CC[C@@H]3[C@@H]21 [Example 37] | +
2. CC1CC2=CC(=O)CCC2C2CCC3(C)C(CCC3(C)CO)C12 (stereo not shown) [Example 11] | +
3. CCC(O)[C@@H]1CC[C@@H]2[C@H]3[C@H](CC[C@@]21C)[C@H]1CCC(=O)C=C1C[C@H]3C (stereo partly shown) [Example 17b] | +
4. C[C@@H]1CC2=C/C(=N/O)CC[C@@H]2[C@H]2CC[C@]3(C)[C@H](CO)CC[C@@H]3[C@@H]21 [Example 36a] | +
5. C[C@@H]1CC2=CC(=O)CC[C@@H]2[C@H]2CC[C@@]3(C)[C@H](CC[C@]3(F)CO)[C@@H]21 [Example 12] | +++

Give its Rating (androgenic activity) value. Item: CC(=O)OC[C@@H]1CC[C@@H]2[C@@H]3CCC4=CC(=O)CC[C@]4(C)[C@H]3CC[C@]12C [Example 22a]
+

Give its Rating (androgenic activity) value. Item: CC1CC2=CC(=O)CCC2C2CCC3(C)C(C4CC4C3C(C)(C)O)C12 (stereo not shown) [Example 21]
+

Give its Rating (androgenic activity) value. Item: CCC1CC2(C)C(C(C)O)CCC2C2CCC3=CC(=O)CCC3C12 (stereo not shown) [Example 29a]
+

Give its Rating (androgenic activity) value. Item: C[C@@H]1CC2=C[C@@H](O)CC[C@@H]2[C@H]2CC[C@]3(C)[C@H](CO)CC[C@@H]3[C@@H]21 [Example 34]
++

Give its Rating (androgenic activity) value. Item: CC(O)C1CCC2C3CCC4=CC(=O)CCC4C3CCC12C (stereo not shown) [Example 24a]
++

Give its Rating (androgenic activity) value. Item: CC[C@@H]1CC2=CC(=O)CC[C@@H]2[C@H]2CC[C@]3(C)[C@H](CO)CC[C@@H]3[C@H]12 [Example 14]
+

Give its Rating (androgenic activity) value. Item: CC[C@H](O)[C@@H]1CC[C@@H]2[C@@H]3CCC4=CC(=O)CC[C@@H]4[C@H]3CC[C@@]21C [Example 25a]
++

Give its Rating (androgenic activity) value. Item: C[C@@H]1CC2=CC(=O)CC[C@@H]2[C@H]2CC[C@@]3(C)[C@H](C[C@H](C)[C@H]3CO)[C@@H]21 [Example 9]
++
